# Test system: U2OS
# method notes: Here: values are normalized to the negative (DMSO; defined as 0% autophagy induction) and positive (250nM Torin1; mTOR inhibitor; defined as maximal inducer of autophagy = 100%) control compounds and represented as % of autophagy induction. […] The impact of autophagy induction on cells is complex and depends on the affected target. As such, the magnitude of a phenotype may not be equally mirrored in the %-value of autophagy induction and vice versa. The dynamics of the induction may indicate the mode of activation: e.g. activation via phosphorylation or a signaling cascade may occur fast, while activation via transcription factors may take considerably longer. […] Of note, treatment concentrations may be sub-optimal for specific compounds, leading to false negative annotations.
# Type: functional, Homo sapiens
# test parameters: Compound Concentration 10 uM, Timepoint 36 hours, Culturing Media DMEM, 1 % Penicillin/Streptomycin, 10% Fetal bovin serum Add-On: No, Screening Media Control DMEM, Screening Media Samples DMEM
Each entry below carries its reported autophagy induction.

Example results:
compound: CCCCCCCCCCCCCCCCOC[C@H](COP(=O)([O-])OCC[N+](C)(C)C)OC(C)=O
autophagy induction: 6.18%
--
compound: Cc1nnn(-c2ccc(-c3ccc(C4(C(=O)O)CC4)cc3)cc2)c1NC(=O)O[C@H](C)c1ccccc1
autophagy induction: 8.0313%
--
compound: O=C(Cc1ccccc1)Nc1nc2ccc(Cl)cc2c2nc(-c3ccco3)nn12
autophagy induction: 0.6441%

# input What value of measured autophagy induction is listed for O=C(O)CC/C=C\C[C@@H]1CO[C@H](c2ccccc2Cl)O[C@@H]1c1ccccc1O ?
# output -0.4123%

# input Cl.Clc1ccc(CCCOCCCN2CCCCC2)cc1 [PITOLISANT HYDROCHLORIDE] ?
# output 1.993%

# input FC(F)(F)c1c(N2CCC(c3ccccc3)CC2)ccn2c(CC3CC3)nnc12 ?
# output -1.15%

# input Cc1c(C2=CCN(C(=O)N(C)C(C)C)CC2)nnn1-c1cccnc1F ?
# output -1.59%

# input COc1ccc(/C=C/CCCCOc2ccc(C(=O)c3cccc(C(=O)O)c3)cc2CCC(=O)O)cc1 ?
# output -0.5172%

# input Cc1c(P(=S)(c2ccccc2)c2ccccc2)n2ccccc2[n+]1C/C=C/c1ccccc1.[Br-] ?
# output 55.7211%

###

# Test system: TERT-RPE1
# method notes: Here: values are normalized to the negative (DMSO; defined as 0% autophagy induction) and positive (250nM Torin1; mTOR inhibitor; defined as maximal inducer of autophagy = 100%) control compounds and represented as % of autophagy induction. […] The impact of autophagy induction on cells is complex and depends on the affected target. As such, the magnitude of a phenotype may not be equally mirrored in the %-value of autophagy induction and vice versa. The dynamics of the induction may indicate the mode of activation: e.g. activation via phosphorylation or a signaling cascade may occur fast, while activation via transcription factors may take considerably longer. […] Of note, treatment concentrations may be sub-optimal for specific compounds, leading to false negative annotations.
# Format: functional, Homo sapiens
# test parameters: Compound Concentration 2 uM, Timepoint 24 hours, Culturing Media DMEM/F12 (1:1), 1 % Penicillin/Streptomycin, 10% Fetal bovin serum Add-On: No, Screening Media Control DMEM/F12 (1:1), Screening Media Samples DMEM/F12 (1:1)
Each entry below carries its reported autophagy induction.
Please state the figure in %; there is no need to write the unit.

Example results:
compound: N#Cc1c[nH]c2c(C(=O)N3CCN(CCc4ccc(F)cc4)CC3)cccc12 [PRUVANSERIN]
quantity unit: %
autophagy induction: -7.924
--
compound: N#Cc1c(N)nc(SCC(N)=O)c(C#N)c1-c1ccc(OCC2CC2)cc1
quantity unit: %
autophagy induction: 7.278
--
compound: O=C(O)C1CN(Cc2ccc(-c3nc4cc(Cc5ccccc5F)ccc4s3)c(F)c2)C1
quantity unit: %
autophagy induction: -9.963
--
compound: C[C@]1(C(=O)N(CCCC(=O)O)Cc2cccc(Cl)c2)CCN1C(=O)c1csc2ccccc12 [GLPG-0974]
quantity unit: %
autophagy induction: -8.05
--
compound: Cc1c(P(=S)(c2ccccc2)c2ccccc2)n2ccccc2[n+]1C/C=C/c1ccccc1.[Br-]
quantity unit: %
autophagy induction: -0.5859

# input What value of measured autophagy induction is listed for Cc1nc(C(=O)N2CCC[C@H]2Cc2nnc(-c3ccccc3)o2)c(-c2ccccc2F)s1 ?
# output -6.585

# input N#Cc1cccc(C(=O)Nc2cc(-c3ccccc3)nn2-c2ccccc2)c1 ?
# output -9.075

# input CCCCN(CCCC)C(=O)CN1C[C@@H](c2ccc3c(c2)OCO3)[C@H](C(=O)O)[C@H]1c1ccc(OC)cc1 ?
# output -6.33

# input CCc1cc(C(C)=O)c(O)cc1OCCCCCC(C)(C)c1nn[nH]n1 [LY-255283] ?
# output -9.195

###

# Tested on: U2OS
# method notes: Here: values are normalized to the negative (DMSO; defined as 0% autophagy induction) and positive (250nM Torin1; mTOR inhibitor; defined as maximal inducer of autophagy = 100%) control compounds and represented as % of autophagy induction. […] The impact of autophagy induction on cells is complex and depends on the affected target. As such, the magnitude of a phenotype may not be equally mirrored in the %-value of autophagy induction and vice versa. The dynamics of the induction may indicate the mode of activation: e.g. activation via phosphorylation or a signaling cascade may occur fast, while activation via transcription factors may take considerably longer. […] Of note, treatment concentrations may be sub-optimal for specific compounds, leading to false negative annotations.
# Assay type: functional, Homo sapiens
# test parameters: Compound Concentration 2 uM, Timepoint 36 hours, Culturing Media DMEM, 1 % Penicillin/Streptomycin, 10% Fetal bovin serum Add-On: No, Screening Media Control DMEM, Screening Media Samples DMEM
attribute measured: autophagy induction

compound: CN1CCCC(n2nc(Cc3ccc(Cl)cc3)c3ccccc3c2=O)CC1.Cl (stereo unspecified) [AZELASTINE HYDROCHLORIDE]
recorded result: -60.9405%

compound: Cc1c(P(=S)(c2ccccc2)c2ccccc2)n2ccccc2[n+]1C/C=C/c1ccccc1.[Br-]
recorded result: -2.341%

compound: O=C1N/C(=N/c2ccccc2F)S/C1=C\c1ccc(C(=O)O)cc1
recorded result: -0.5769%

compound: COc1ccccc1CN[C@H]1C2CCN(CC2)[C@H]1C(c1ccccc1)c1ccccc1 [CP-96345]
recorded result: -7.223%

compound: O=C(O)CC/C=C\C[C@@H]1CO[C@H](c2ccccc2Cl)O[C@@H]1c1ccccc1O
recorded result: -1.86%

# input Write down the reported autophagy induction of CCCCN(CCCC)C(=O)CN1C[C@@H](c2ccc3c(c2)OCO3)[C@H](C(=O)O)[C@H]1c1ccc(OC)cc1 , test system: U2OS.
# output -2.29%

# input O=C(Nc1ccc(Cl)cc1)Nc1cccc(-c2cccc(N3CCCC3)n2)c1 ?
# output -2.698%

# input CSc1ccc(C(=O)N[C@@H]2CCCC[C@@H]2NC(=O)CNC(=O)c2cc(C(F)(F)F)ccc2NC(=O)NC(C)C)cc1 ?
# output 0.2664%

# input N[C@H](C(=O)O)c1ccc(C(=O)O)c(C(=O)O)c1 ?
# output -1.714%

# input C[C@]1(C(=O)N(CCCC(=O)O)Cc2cccc(Cl)c2)CCN1C(=O)c1csc2ccccc12 [GLPG-0974] ?
# output -0.9761%

# input Cl.Cl.Cl.c1ccc(N2CCN(Cc3nc4ccccc4[nH]3)CC2)nc1 ?
# output -4.313%

# input CC(C)Oc1ccccc1C(=O)Nc1ccccc1C(=O)Nc1cccc(S(=O)(=O)C(F)(F)F)c1 ?
# output 2.272%

# input N#Cc1ccc(NC(=O)Nc2ccccc2Br)c2nn[nH]c12 ?
# output -1.494%

# input Cc1nnn(-c2ccc(-c3ccc(C4(C(=O)O)CC4)cc3)cc2)c1NC(=O)O[C@H](C)c1ccccc1 ?
# output -0.1911%

# input O=C(O)C1CN(Cc2ccc(-c3nc4cc(Cc5ccccc5F)ccc4s3)c(F)c2)C1 ?
# output -0.6521%

# input CCc1ccc(OCc2ccccc2C(=O)Nc2ccc3nc(C)cc(N)c3c2)cc1.Cl ?
# output 3.022%

# input CC(C)NC(=O)c1ccc(C#Cc2ccncc2)cn1 ?
# output -2.622%

# input CCCCCCCCCCCCCCCCOC[C@H](COP(=O)([O-])OCC[N+](C)(C)C)OC(C)=O ?
# output 2231.79%

# input CCCNS(=O)(=O)Nc1ncnc(OCCOc2ncc(Br)cn2)c1-c1ccc(Br)cc1 ?
# output -59.7666%

# input CCCCN(CC)c1nc(C)nc2c1c(C)cn2-c1c(C)cc(C)cc1C.Cl ?
# output -1.59%

# input FC(F)(F)c1c(N2CCC(c3ccccc3)CC2)ccn2c(CC3CC3)nnc12 ?
# output -60.9304%

# input CCCCCNC(=O)NS(=O)(=O)c1cc([N+](=O)[O-])ccc1NC1CCCCC1 ?
# output -2.2883%

# input Cc1csc(NC(=O)c2cc(F)cc(Oc3cncnc3)c2)n1 ?
# output -2.553%

# input CCOC(=O)c1cc(C#N)c(N2CCC(C(=O)NS(=O)(=O)Cc3ccccc3)CC2)nc1C ?
# output 0.3824%

# input COc1ccc(S(=O)(=O)c2cc(OC)ccc2S(=O)(=O)c2ccc([C@H](C)NS(C)(=O)=O)cc2)cc1 ?
# output 1.125%

# input COc1ccc(CNC(=O)c2cc(-c3cncc(Cl)c3)cnc2-c2ccccn2)nc1OC [MK-1064] ?
# output 2463.06%

# input FC(F)(F)c1cccc(-c2noc(-c3cc(-c4ccccc4)c(C(F)(F)F)s3)n2)c1 ?
# output -60.4788%

# input O=C(O)CC1CCC2(CC1)CCN(c1cc(OC(F)(F)F)ccc1Cl)CC2 ?
# output -58.8057%

Reference for the values: ChEMBL document CHEMBL5724696
